Form field: solubility kinetic (one value per entry).
assay: physchem; conditions: PBS, pH 6.5, aqueous buffer, kinetic from dmso stock

Molecule	Endpoint Value
Cc1ncsc1-c1ccc(CNC(=O)[C@@H]2C[C@@H](O)CN2C(=O)[C@@H](NC(=O)COCc2cn(CCOc3cnc4c(C5CCN(C(=O)c6ccc(OC(F)(F)F)cc6)CC5)ncnc4c3)nn2)C(C)(C)C)cc1 [PROTAC 4]	10 to 20 µM
Cc1ncsc1-c1ccc(CNC(=O)[C@@H]2C[C@@H](O)CN2C(=O)[C@@H](NC(=O)Cc2ccc(OCCOc3cnc4c(C5CCN(C(=O)c6ccc(OC(F)(F)F)cc6)CC5)ncnc4c3)cc2)C(C)(C)C)cc1 [PROTAC 5]	< 1 µM
Cc1ncsc1-c1ccc(CNC(=O)[C@@H]2C[C@@H](O)CN2C(=O)[C@@H](NC(=O)CCOCCOCCOc2cnc3c(C4CCN(C(=O)c5ccc(OC(F)(F)F)cc5)CC4)ncnc3c2)C(C)(C)C)cc1 [PROTAC 2]	< 1 µM
Cc1ncsc1-c1ccc(CNC(=O)[C@@H]2C[C@@H](O)CN2C(=O)[C@@H](NC(=O)CCOCCNC(=O)COc2cnc3c(C4CCN(C(=O)c5ccc(OC(F)(F)F)cc5)CC4)ncnc3c2)C(C)(C)C)cc1 [PROTAC 3]	10 to 20 µM
Cc1ncsc1-c1ccc(CNC(=O)[C@@H]2C[C@@H](O)CN2C(=O)[C@@H](NC(=O)Cc2ccc(OCCOc3cnc4c(C5CCN(C(=O)c6ccc(OC(F)(F)F)cc6)CC5)ncnc4c3)cn2)C(C)(C)C)cc1 [PROTAC 6]	< 1 µM

Switching to the query record.
What does the record list as solubility kinetic for Cc1ncsc1-c1ccc(CNC(=O)[C@@H]2C[C@@H](O)CN2C(=O)[C@@H](NC(=O)CCCCCCCCOc2cnc3c(C4CCN(C(=O)c5ccc(OC(F)(F)F)cc5)CC4)ncnc3c2)C(C)(C)C)cc1 [PROTAC 1] ?
< 1 µM

---

Measured chromatographic logD, listed per entry for reference.
assay: chromatographic Log D at pH 7.5; format: physicochemical; conditions: pH 7.5, chromatographic lipophilicity, pH 7.5; read-out: LogD (pH 7.5)
Output: the number by itself.

As a guide, the following entries are already answered.
Compound	chromatographic logD
Cc1ncsc1-c1ccc(CNC(=O)[C@@H]2C[C@@H](O)CN2C(=O)[C@@H](NC(=O)COCCOCCNC(=O)COc2cnc3c(C4CCN(C(=O)c5ccc(OC(F)(F)F)cc5)CC4)ncnc3c2)C(C)(C)C)cc1 [PROTAC 9]	2.7
Cc1ncsc1-c1ccc(CNC(=O)[C@@H]2C[C@@H](O)CN2C(=O)[C@@H](NC(=O)Cc2ccc(OCCOc3cnc4c(C5CCN(C(=O)c6ccc(OC(F)(F)F)cc6)CC5)ncnc4c3)cc2)C(C)(C)C)cc1 [PROTAC 5]	3.2
Cc1ncsc1-c1ccc(CNC(=O)[C@@H]2C[C@@H](O)CN2C(=O)[C@@H](NC(=O)CN2CCC(CCCOc3cnc4c(C5CCN(C(=O)c6ccc(OC(F)(F)F)cc6)CC5)ncnc4c3)CC2)C(C)(C)C)cc1 [PROTAC 8]	3.6

Item under review: Cc1ncsc1-c1ccc(CNC(=O)[C@@H]2C[C@@H](O)CN2C(=O)[C@@H](NC(=O)Cc2ccc(OCCOc3cnc4c(C5CCN(C(=O)c6ccc(OC(F)(F)F)cc6)CC5)ncnc4c3)cn2)C(C)(C)C)cc1 [PROTAC 6] . Reported chromatographic logD?
3

Cc1ncsc1-c1ccc(CNC(=O)[C@@H]2C[C@@H](O)CN2C(=O)[C@@H](NC(=O)CN(C)CCCCCCOc2cnc3c(C4CCN(C(=O)c5ccc(OC(F)(F)F)cc5)CC4)ncnc3c2)C(C)(C)C)cc1 [PROTAC 7] , same question.
3.7

And what about the compound Cc1ncsc1-c1ccc(CNC(=O)[C@@H]2C[C@@H](O)CN2C(=O)[C@@H](NC(=O)CCOCCOCCOc2cnc3c(C4CCN(C(=O)c5ccc(OC(F)(F)F)cc5)CC4)ncnc3c2)C(C)(C)C)cc1 [PROTAC 2] ?
2.9
